The values you see were collected from ChEMBL document CHEMBL3868641.

Assay: Unbound fraction in rat plasma by HPLC/MS based equilibrium dialysis method
Type: ADME, cell-free
Threshold check on fraction unbound: strictly below 0.009 is 1 (yes); on or above 0.009 is 0 (no).

Look over these answered cases.
>>> assigned_label("Fc1ccc(CC[C@@H]2CN(Cc3c[nH]c4cc(F)ccc34)CCC2(F)F)cc1")
"0 (no)"
>>> assigned_label("Cc1ccc(CN2CCC(F)(F)[C@H](CCc3ccccc3)C2)cc1C")
"1 (yes)"
>>> assigned_label("Fc1ccccc1CC[C@@H]1CN(Cc2c[nH]c3cc(Cl)ccc23)CCC1(F)F")
"1 (yes)"
>>> assigned_label("Fc1ccc2[nH]cc(CN3CCC(F)(F)[C@@H](CCc4ccccc4)C3)c2c1")
"1 (yes)"

Alright, here's another compound for you.
**Q:** fraction unbound under 0.009? Item: Fc1ccc2c(CN3CCC(F)(F)[C@H](CCc4ccccc4F)C3)c[nH]c2c1
**A:** 0 (no)

---

Quick reference for inhibition among some molecules
Biological target: D(2) dopamine receptor (Homo sapiens)
Assay: Displacement of [3H]Spiperone from recombinant human Dopamine D2L receptor expressed in CHO cell membranes at 10 uM after 120 mins relative to control

>>> measurement("Cc1ccc(CN2CCC(F)(F)C(CCc3ccccc3)C2)cc1C (racemic)")
"< 20%"
>>> measurement("Fc1ccccc1CCC1CN(Cc2c[nH]c3cc(Cl)ccc23)CCC1(F)F (racemic)")
"< 50%"
>>> measurement("COc1ccc2c(CN3CCC(F)(F)[C@H](CCc4cccc(F)c4)C3)c[nH]c2c1")
"53%"
>>> measurement("COc1ccc2[nH]cc(CN3CCC(F)(F)C(CCc4ccccc4)C3)c2c1 (racemic)")
"< 50%"
>>> measurement("Fc1cccc(CCC2CN(Cc3c[nH]c4cc(F)ccc34)CCC2(F)F)c1 (racemic)")
"< 50%"
>>> measurement("FC1(F)CCN(Cc2ncn3ccccc23)CC1CCc1ccccc1 (racemic)")
"< 50%"
>>> measurement("COc1ccc2c(CN3CCC(F)(F)C(CCc4ccccc4F)C3)c[nH]c2c1 (racemic)")
"< 50%"
>>> measurement("Fc1ccc(CC[C@H]2CN(Cc3c[nH]c4cc(F)ccc34)CCC2(F)F)cc1")
"< 50%"

Proceeding to the next molecule to report its inhibition.
**Q:** Please give the measured inhibition for this molecule: COc1ccc2c(CN3CCC(F)(F)[C@H](CCc4ccc(F)cc4)C3)c[nH]c2c1
**A:** 67%

---

Test: Displacement of [3H]Spiperone from recombinant human Dopamine D4.4 receptor expressed in CHO-K1 cell membranes after 120 mins
pIC50: −log10 of the molar value.
Everything with pIC50 lower than 7 is NO; everything else, including exactly 7, is YES.

Look over these answered cases.
>>> assigned_label("FC1(F)CCN(Cc2ccc3ccccc3c2)CC1CCc1ccccc1 (racemic)")
"NO"
>>> assigned_label("Cc1ccc(CN2CCC(F)(F)[C@H](CCc3ccccc3)C2)cc1C")
"NO"
>>> assigned_label("Fc1ccc(CCC2CN(Cc3ncn4ccccc34)CCC2(F)F)cc1 (racemic)")
"YES"

**Q:** Dear colleague, could you confirm whether COc1ccc2c(CN3CCC(F)(F)C(CCc4ccc(F)cc4)C3)c[nH]c2c1 (racemic) has pIC50 at or above 7?
**A:** YES

**Q:** Cool, now COc1ccc2c(CN3CCC(F)(F)[C@@H](CCc4cccc(F)c4)C3)c[nH]c2c1
**A:** NO

**Q:** Cool, now Fc1ccc2[nH]cc(CN3CCC(F)(F)[C@H](CCc4ccccc4)C3)c2c1
**A:** YES

**Q:** Cool, now Fc1ccc2c(CN3CCC(F)(F)C(CCc4ccccc4F)C3)c[nH]c2c1 (racemic)
**A:** YES

**Q:** Cool, now FC1(F)CCN(Cc2ccc3ncccc3c2)CC1CCc1ccccc1 (racemic)
**A:** NO

**Q:** Cool, now COc1ccc2c(CN3CCC(F)(F)[C@H](CCc4ccc(F)cc4)C3)c[nH]c2c1
**A:** YES

**Q:** Cool, now COc1ccc2c(CN3CCC(F)(F)C(CCc4ccccc4OC)C3)c[nH]c2c1 (racemic)
**A:** NO

**Q:** Cool, now COc1cccc(CCC2CN(Cc3c[nH]c4cc(OC)ccc34)CCC2(F)F)c1 (racemic)
**A:** NO

**Q:** Cool, now Fc1ccc(CC[C@H]2CN(Cc3c[nH]c4cc(Cl)ccc34)CCC2(F)F)cc1
**A:** NO

**Q:** Cool, now COc1ccc2c(CN3CCC(F)(F)[C@H](CCc4cccc(F)c4)C3)c[nH]c2c1
**A:** YES

**Q:** Cool, now Fc1ccccc1CC[C@@H]1CN(Cc2c[nH]c3cc(Cl)ccc23)CCC1(F)F
**A:** NO

**Q:** Cool, now COc1ccccc1CCC1CN(Cc2ccc(Cl)cc2)CCC1(F)F (racemic)
**A:** NO

**Q:** Cool, now Fc1ccccc1CC[C@H]1CN(Cc2c[nH]c3cc(Cl)ccc23)CCC1(F)F
**A:** NO

**Q:** Cool, now Fc1ccc(CCC2CN(Cc3c[nH]c4cc(F)ccc34)CCC2(F)F)cc1 (racemic)
**A:** YES

**Q:** Cool, now Fc1ccc(CC[C@@H]2CN(Cc3c[nH]c4cc(F)ccc34)CCC2(F)F)cc1
**A:** YES

**Q:** Cool, now COc1ccc2[nH]cc(CN3CCC(F)(F)C(CCc4ccccc4)C3)c2c1 (racemic)
**A:** NO

**Q:** Cool, now FC1(F)CCN(Cc2ccc(Cl)cc2)CC1CCc1ccccc1 (racemic)
**A:** NO

**Q:** Cool, now Fc1ccc2c(CN3CCC(F)(F)[C@H](CCc4ccccc4)C3)c[nH]c2c1
**A:** YES
